Reference source: ChEMBL document CHEMBL4229531

# Tested target: Amyloid-beta precursor protein (Homo sapiens)
# Assay method text: Inhibition of self-induced amyloid beta (1 to 42) (unknown origin) aggregation at 20 uM after 72 hrs by thioflavin T assay relative to control
Measured endpoint: inhibition
# output: number + unit

Query: Checklist item: inhibition tested on Amyloid-beta precursor protein (Homo sapiens), entry `C[n+]1c2c(c(N)c3ccccc31)C(=O)/C(=C\c1cccs1)CC2.[I-]` , value?
Reply: 94.9%

Query: Checklist item: inhibition tested on Amyloid-beta precursor protein (Homo sapiens), entry `Nc1c2c(nc3ccccc13)CC/C(=C\c1cccc([N+](=O)[O-])c1)C2=O` , value?
Reply: 8.2%

Query: Checklist item: inhibition tested on Amyloid-beta precursor protein (Homo sapiens), entry `Nc1c2c(nc3ccccc13)CC/C(=C\c1ccc([N+](=O)[O-])cc1)C2=O` , value?
Reply: 2.4%

Query: Checklist item: inhibition tested on Amyloid-beta precursor protein (Homo sapiens), entry `Nc1c2c(nc3ccccc13)CC/C(=C\c1cccc(Cl)c1)C2=O` , value?
Reply: 34.2%

Query: Checklist item: inhibition tested on Amyloid-beta precursor protein (Homo sapiens), entry `Nc1c2c(nc3ccccc13)CC/C(=C\c1ccc(Cl)cc1)C2=O` , value?
Reply: 24.8%

Query: Checklist item: inhibition tested on Amyloid-beta precursor protein (Homo sapiens), entry `Nc1c2c(nc3ccccc13)CC/C(=C\c1cccs1)C2=O` , value?
Reply: 14.5%

Query: Checklist item: inhibition tested on Amyloid-beta precursor protein (Homo sapiens), entry `O=C1/C(=C/c2cccc(F)c2)CCc2nc3ccccc3cc21` , value?
Reply: 7.2%

Query: Checklist item: inhibition tested on Amyloid-beta precursor protein (Homo sapiens), entry `Cc1c2c(nc3ccccc13)CC/C(=C\c1ccccc1)C2=O` , value?
Reply: 16.6%

Query: Checklist item: inhibition tested on Amyloid-beta precursor protein (Homo sapiens), entry `C[n+]1c2c(c(N)c3ccccc31)C(=O)/C(=C/c1cccs1)CC2.[I-]` , value?
Reply: 99.5%

Query: Checklist item: inhibition tested on Amyloid-beta precursor protein (Homo sapiens), entry `Nc1c2c(nc3ccccc13)CC/C(=C\c1cccc(F)c1)C2=O` , value?
Reply: 20.3%

Query: Checklist item: inhibition tested on Amyloid-beta precursor protein (Homo sapiens), entry `C[n+]1c2c(c(N)c3ccccc31)C(=O)/C(=C/c1ccccc1)CC2.[I-]` , value?
Reply: 84.7%

Query: Checklist item: inhibition tested on Amyloid-beta precursor protein (Homo sapiens), entry `Nc1c2c(nc3ccccc13)CC/C(=C\c1ccccc1)C2=O` , value?
Reply: 7.7%

Query: Checklist item: inhibition tested on Amyloid-beta precursor protein (Homo sapiens), entry `Nc1c2c(nc3ccccc13)CC/C(=C/c1cccc3ccccc13)C2=O` , value?
Reply: -6.8%

Query: Checklist item: inhibition tested on Amyloid-beta precursor protein (Homo sapiens), entry `C[n+]1c2c(c(N)c3ccccc31)C(=O)/C(=C\c1ccccc1)CC2.[I-]` , value?
Reply: 97.6%

Query: Checklist item: inhibition tested on Amyloid-beta precursor protein (Homo sapiens), entry `C[n+]1c2c(c(N)c3ccccc31)C(=O)/C(=C/c1cccc(F)c1)CC2.[I-]` , value?
Reply: 98.7%

Query: Checklist item: inhibition tested on Amyloid-beta precursor protein (Homo sapiens), entry `COc1cccc(/C=C2\CCc3nc4ccccc4c(N)c3C2=O)c1` , value?
Reply: 7.9%

Query: Checklist item: inhibition tested on Amyloid-beta precursor protein (Homo sapiens), entry `Nc1c2c(nc3ccccc13)CC/C(=C\c1ccccc1Cl)C2=O` , value?
Reply: 14.1%

Query: Checklist item: inhibition tested on Amyloid-beta precursor protein (Homo sapiens), entry `C[n+]1c2c(c(N)c3ccccc31)C(=O)/C(=C\c1cccc(Cl)c1)CC2.[I-]` , value?
Reply: 105%

Query: Checklist item: inhibition tested on Amyloid-beta precursor protein (Homo sapiens), entry `C[n+]1c2c(c(N)c3ccccc31)C(=O)/C(=C/c1cccc3ccccc13)CC2.[I-]` , value?
Reply: 86.7%

Query: Checklist item: inhibition tested on Amyloid-beta precursor protein (Homo sapiens), entry Nc1c2c(nc3ccccc13)CCC(Cc1ccccc1)C2=O (stereo unspecified) , value?
Reply: -4%

Query: Checklist item: inhibition tested on Amyloid-beta precursor protein (Homo sapiens), entry `O=C1/C(=C/c2ccc([N+](=O)[O-])cc2)CCc2nc3ccccc3cc21` , value?
Reply: 2.7%

* * *

# Tested target: Amyloid-beta precursor protein (Homo sapiens, UniProt P05067)
# Sequence (P05067 whole entry): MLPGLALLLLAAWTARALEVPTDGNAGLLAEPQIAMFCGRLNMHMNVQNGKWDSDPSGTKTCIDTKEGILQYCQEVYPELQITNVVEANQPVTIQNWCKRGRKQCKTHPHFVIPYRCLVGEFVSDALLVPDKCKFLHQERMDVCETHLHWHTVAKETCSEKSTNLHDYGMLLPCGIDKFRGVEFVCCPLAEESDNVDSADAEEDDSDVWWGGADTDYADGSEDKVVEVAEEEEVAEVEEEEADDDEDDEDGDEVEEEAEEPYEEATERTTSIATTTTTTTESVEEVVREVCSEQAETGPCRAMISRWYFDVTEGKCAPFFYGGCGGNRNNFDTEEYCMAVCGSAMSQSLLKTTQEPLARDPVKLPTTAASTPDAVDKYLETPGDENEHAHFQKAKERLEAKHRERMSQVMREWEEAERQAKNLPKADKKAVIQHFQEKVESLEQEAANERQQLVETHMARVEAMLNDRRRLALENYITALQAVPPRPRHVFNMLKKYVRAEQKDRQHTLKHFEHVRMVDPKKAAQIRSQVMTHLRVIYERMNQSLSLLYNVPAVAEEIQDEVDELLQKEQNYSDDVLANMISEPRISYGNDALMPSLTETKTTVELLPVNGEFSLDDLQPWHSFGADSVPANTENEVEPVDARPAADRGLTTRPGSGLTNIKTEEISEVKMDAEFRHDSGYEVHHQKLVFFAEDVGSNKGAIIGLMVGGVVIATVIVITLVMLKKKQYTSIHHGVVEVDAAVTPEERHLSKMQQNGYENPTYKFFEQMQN
# Assay method text: Inhibition of self-induced amyloid beta (1 to 42) (unknown origin) aggregation at 20 uM after 72 hrs by thioflavin T assay relative to control
Measured endpoint: inhibition (%)
Kindly answer with a numeric value in %, unit omitted.

Query: Checklist item: inhibition tested on Amyloid-beta precursor protein (Homo sapiens, UniProt P05067), entry `O=C1/C(=C/c2ccccc2Cl)CCc2nc3ccccc3cc21` , value?
Reply: 3.5

Query: Checklist item: inhibition tested on Amyloid-beta precursor protein (Homo sapiens, UniProt P05067), entry `Nc1c2c(nc3ccccc13)CC/C(=C\C=C\c1ccccc1)C2=O` , value?
Reply: 2

Query: Checklist item: inhibition tested on Amyloid-beta precursor protein (Homo sapiens, UniProt P05067), entry `O=C1/C(=C/c2ccccc2)CCc2nc3ccccc3cc21` , value?
Reply: -3.2

Query: Checklist item: inhibition tested on Amyloid-beta precursor protein (Homo sapiens, UniProt P05067), entry `O=C1/C(=C/c2cccc(Cl)c2)CCc2nc3ccccc3cc21` , value?
Reply: 46.2

Query: Checklist item: inhibition tested on Amyloid-beta precursor protein (Homo sapiens, UniProt P05067), entry `C[n+]1c2c(c(N)c3ccccc31)C(=O)/C(=C\c1cccc([N+](=O)[O-])c1)CC2.[I-]` , value?
Reply: 94.4
